TARGET_DESC: MtMetAP1a (Mycobacterium tuberculosis, UniProt P9WK21)
Construct: made in house; host or cells: E. coli BL21 (DE3)
Sequence (P9WK21 whole entry): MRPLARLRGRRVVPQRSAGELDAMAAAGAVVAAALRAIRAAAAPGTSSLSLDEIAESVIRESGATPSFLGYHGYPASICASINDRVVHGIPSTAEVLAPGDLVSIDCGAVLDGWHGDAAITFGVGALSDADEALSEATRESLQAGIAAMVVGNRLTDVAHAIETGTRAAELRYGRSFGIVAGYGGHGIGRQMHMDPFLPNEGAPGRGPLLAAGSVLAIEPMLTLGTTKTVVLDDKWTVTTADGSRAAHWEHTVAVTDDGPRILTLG
EXPERIMENT_DESCRIPTION: Coupled methionine-proline aminopeptidase assay (Met-Pro-pNA), IC50 determination
Format: biochemical, M. tuberculosis
CONDITION: recombinant enzyme, 1.5 μM CoCl2, 600 μM Met-Pro-pNA; read-out: IC50 (μM) MtMetAP1a
MEASUREMENT_LABEL: IC50

Below are worked cases with known answers.
COMPOUND	TARGET_DESC	OBSERVED_RESULT
Cc1cc(C)cc(NC2=C(Cl)C(=O)c3ccccc3C2=O)c1 [Compound 19]	MtMetAP1a (Mycobacterium tuberculosis, UniProt P9WK21)	13.9 µM
CN(C)c1ccc(NC2=C(Cl)C(=O)c3ccccc3C2=O)cc1 [Compound 15]	MtMetAP1a (Mycobacterium tuberculosis, UniProt P9WK21)	> 30 µM
O=C1C(Cl)=C(Nc2cccc(F)c2)C(=O)c2ccccc21 [Compound 13]	MtMetAP1a (Mycobacterium tuberculosis, UniProt P9WK21)	> 30 µM

(Q) Report value only: IC50, MtMetAP1a (Mycobacterium tuberculosis, UniProt P9WK21), CCCN(CCC)C1=C(Cl)C(=O)c2ccccc2C1=O [Compound 26]
(A) > 50 µM

(Q) Report value only: IC50, MtMetAP1a (Mycobacterium tuberculosis, UniProt P9WK21), O=C1C(Cl)=C(N2CCN(c3ccc(Cl)c(Cl)c3)CC2)C(=O)c2ccccc21 [Compound 9]
(A) > 100 µM

(Q) Report value only: IC50, MtMetAP1a (Mycobacterium tuberculosis, UniProt P9WK21), O=C1C(Cl)=C(NCc2ccc(Cl)cc2)C(=O)c2ccccc21 [Compound 6]
(A) > 100 µM

(Q) Report value only: IC50, MtMetAP1a (Mycobacterium tuberculosis, UniProt P9WK21), O=C1C(Cl)=C(Nc2cccc(C(F)(F)F)c2)C(=O)c2ccccc21 [Compound 12]
(A) > 30 µM

Ref: patent US10472315B2
